# Tested on: Phospho-Myosin Light Chain2 (Ser19)
# EXPERIMENT_NOTES: Cell activity test: MLC2 (Ser19) phosphorylation in A7R5 cells (Western blot)
# Format: cell-based
# TEST_SETTINGS: starved 20 hours, compound treatment 60 minutes, MLC2 (Ser19) phosphorylation corrected with GAPDH, read-out: cell activities (IC50)
# true = IC50 below 40 nM (exclusive); false = IC50 at/above 40 nM

Some solved cases for reference:
NC[C@@H](C(=O)Nc1cc2ccncc2s1)c1ccc(CCO[N+](=O)[O-])cc1    true
NCC(C(=O)Nc1cc2ccncc2s1)c1ccc(CCCO[N+](=O)[O-])cc1 (stereo not drawn)    true
NCC(C(=O)Nc1cc2ccncc2s1)c1ccc(OCC(CO[N+](=O)[O-])O[N+](=O)[O-])cc1 (stereo not drawn)    true

Field: below-cutoff. Rule: recorded IC50 strictly less than 40 nM. Subject: `NC[C@@H](C(=O)Nc1cc2ccncc2s1)c1ccc(CO[N+](=O)[O-])cc1`
false

Field: below-cutoff. Rule: recorded IC50 strictly less than 40 nM. Subject: `NC[C@@H](C(=O)Nc1cc2ccncc2s1)c1ccc(COC(=O)CCCCO[N+](=O)[O-])cc1`
true

###

# TARGET_OR_TEST_SYSTEM: ROCK2 (Homo sapiens, UniProt O75116)
# Sequence (O75116 whole entry): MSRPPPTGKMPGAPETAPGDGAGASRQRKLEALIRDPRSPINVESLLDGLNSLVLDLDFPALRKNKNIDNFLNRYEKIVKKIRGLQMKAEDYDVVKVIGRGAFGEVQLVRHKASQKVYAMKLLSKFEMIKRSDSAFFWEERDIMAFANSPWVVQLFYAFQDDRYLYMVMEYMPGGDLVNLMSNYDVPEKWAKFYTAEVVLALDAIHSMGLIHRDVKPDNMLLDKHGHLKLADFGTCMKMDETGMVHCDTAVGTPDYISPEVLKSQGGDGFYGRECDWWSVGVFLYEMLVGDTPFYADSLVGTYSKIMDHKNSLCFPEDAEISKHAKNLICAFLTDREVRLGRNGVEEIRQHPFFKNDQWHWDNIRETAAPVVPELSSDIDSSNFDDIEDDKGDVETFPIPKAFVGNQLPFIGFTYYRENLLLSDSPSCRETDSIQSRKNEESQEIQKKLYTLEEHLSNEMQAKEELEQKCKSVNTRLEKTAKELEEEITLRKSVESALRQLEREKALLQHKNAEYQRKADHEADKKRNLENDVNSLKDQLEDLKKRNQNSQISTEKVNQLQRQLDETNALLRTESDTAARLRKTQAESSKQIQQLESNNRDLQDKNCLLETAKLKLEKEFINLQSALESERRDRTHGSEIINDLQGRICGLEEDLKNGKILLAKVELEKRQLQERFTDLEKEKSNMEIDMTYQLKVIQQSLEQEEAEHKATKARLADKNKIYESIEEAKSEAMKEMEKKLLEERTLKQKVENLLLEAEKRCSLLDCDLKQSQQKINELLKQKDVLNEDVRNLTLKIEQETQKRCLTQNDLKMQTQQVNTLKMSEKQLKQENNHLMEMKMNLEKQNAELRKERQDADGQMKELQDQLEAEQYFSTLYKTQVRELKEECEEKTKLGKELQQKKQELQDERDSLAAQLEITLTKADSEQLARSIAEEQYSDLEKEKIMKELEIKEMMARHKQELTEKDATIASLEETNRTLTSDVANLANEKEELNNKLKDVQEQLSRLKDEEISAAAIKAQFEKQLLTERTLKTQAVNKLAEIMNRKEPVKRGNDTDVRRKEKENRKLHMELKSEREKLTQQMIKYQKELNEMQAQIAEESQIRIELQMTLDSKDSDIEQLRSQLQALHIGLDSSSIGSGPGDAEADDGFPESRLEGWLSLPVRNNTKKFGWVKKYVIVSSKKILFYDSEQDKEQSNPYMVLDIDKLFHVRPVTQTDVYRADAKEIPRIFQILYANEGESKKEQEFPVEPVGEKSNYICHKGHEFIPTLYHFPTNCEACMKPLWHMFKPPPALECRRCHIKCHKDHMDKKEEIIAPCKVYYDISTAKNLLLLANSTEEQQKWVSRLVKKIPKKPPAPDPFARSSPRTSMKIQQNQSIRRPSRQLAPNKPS
pIC50: −log10 of the molar value.
Label Condition met when pIC50 >= 9; otherwise Condition not met.

Some solved cases for reference:
NC[C@@H](C(=O)Nc1cc2ccncc2s1)c1ccc(CO[N+](=O)[O-])cc1 [Example 1]    Condition met
NCC(C(=O)Nc1cc2ccncc2s1)c1ccc(OC(CO[N+](=O)[O-])CO[N+](=O)[O-])cc1 (stereo not shown) [Example 14]    Condition not met
NC[C@@H](C(=O)Nc1cc2ccncc2s1)c1ccc(COC(=O)CC2(CO[N+](=O)[O-])CC2)cc1 [Example 29]    Condition not met

Does pIC50 meet or surpass 9 for CN(C)C[C@@H](C(=O)Nc1cc2ccncc2s1)c1ccc(COC(=O)C(C)(CO[N+](=O)[O-])CO[N+](=O)[O-])cc1 [Example 40] ?
Condition not met

###

Reported pIC50, ROCK2 (Homo sapiens, UniProt O75116).
Give bare numbers, as −log10 of the molar value.

NC[C@@H](C(=O)Nc1cc2ccncc2s1)c1ccc(COC(=O)c2ccc(CO[N+](=O)[O-])cc2)cc1    8.80
NC[C@@H](C(=O)Nc1cc2ccncc2s1)c1ccc(COC(=O)OCCCCO[N+](=O)[O-])cc1    8.82
CC(CO[N+](=O)[O-])(CO[N+](=O)[O-])C(=O)OCc1ccc([C@@H](CN)C(=O)Nc2cc3ccncc3s2)cc1    8.00

// moving on: another record for pIC50
Return the recorded pIC50 value; entry: `Cc1ccc(CCO[N+](=O)[O-])cc1C(=O)OCc1ccc([C@@H](CN)C(=O)Nc2cc3ccncc3s2)cc1`
8.34

###

Reported IC50, ROCK2 (Homo sapiens, UniProt O75116).
One number for each entry, in nM.

Guide cases for IC50, answers given:
NCC(C(=O)Nc1cc2ccncc2s1)c1ccc(C(CO[N+](=O)[O-])O[N+](=O)[O-])cc1 (stereo not shown)    19.2
NC[C@@H](C(=O)Nc1cc2ccncc2s1)c1ccc(COC(=O)C2CC(CO[N+](=O)[O-])(CO[N+](=O)[O-])C2)cc1    32.5
NC[C@@H](C(=O)Nc1cc2ccncc2s1)c1ccc(COC(=O)C2CC(O[N+](=O)[O-])C2)cc1 (stereo partly shown)    1.3

// moving on: another record for IC50
Return the recorded IC50 value; entry: NC[C@@H](C(=O)Nc1cc2ccncc2s1)c1ccc(COC(=O)C2CCC(O[N+](=O)[O-])CC2)cc1 (stereo partly shown)
1.63

###

# TARGET_OR_TEST_SYSTEM: UniProt:O75116
READOUT_TYPE: pIC50
Give bare numbers, as −log10 of the molar value.

Guide cases for pIC50, answers given:
NC[C@@H](C(=O)Nc1cc2ccncc2s1)c1ccc(COC(=O)C2C[C@@H](O[N+](=O)[O-])[C@H](O[N+](=O)[O-])C2)cc1    8.84
NCC(C(=O)Nc1cc2ccncc2s1)c1ccc(OCC(CO[N+](=O)[O-])O[N+](=O)[O-])cc1 (stereo not drawn)    8.66

Return the recorded pIC50 value; entry: `NC[C@@H](C(=O)Nc1cc2ccncc2s1)c1ccc(COC(=O)CCCCO[N+](=O)[O-])cc1`
8.99

###

Reported IC50, ROCK2 (Homo sapiens).
Numbers only, in nM.

NC[C@@H](C(=O)Nc1cc2ccncc2s1)c1ccc(COC(=O)C2CC(CO[N+](=O)[O-])C2)cc1 (stereo partly drawn) [Example 23]    1.13

// for each compound below, give its IC50
1. NC[C@@H](C(=O)Nc1cc2cnccc2s1)c1ccc(COC(=O)CC[C@H](CO[N+](=O)[O-])O[N+](=O)[O-])cc1 [Example 33]
2. NC[C@@H](C(=O)Nc1cc2ccncc2s1)c1ccc(COC(=O)c2cccc(CO[N+](=O)[O-])c2)cc1 [Example 21]

1: 1.18; 2: 1.23
